# SYSTEM: T1, AF9-YEATS Y78W/A79G (human, UniProt P42568 1-138, Y78W | A79G)
# T1 sequence: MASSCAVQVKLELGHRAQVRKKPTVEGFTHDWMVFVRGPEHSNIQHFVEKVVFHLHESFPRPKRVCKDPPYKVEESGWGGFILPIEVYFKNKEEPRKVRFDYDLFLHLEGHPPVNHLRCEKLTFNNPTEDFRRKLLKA
Where no end group is shown, it is not given here. The star is where a group is joined. Crotonyl(E) = C/C=C/C(=O)*
Here, each record is paired with measured Kd data.
ENDPOINT: Kd (nM)

> print(dat)
                                     binder  endpoint  reported.result
1  QTARK(Crotonyl(E))STGG [histone H3K9cr peptide (limits not stated)]        Kd             2700
2  QTARK(Ac)STGG [histone H3K9ac peptide (limits not stated)]        Kd             2600
